# Test system: B. cereus ATCC 11778
# Test Name: microbe, parasite or virus in culture
# Study Conditions: ATCC 11778, 18 h
Where a SMILES comes first, the peptide text is derived from it.
Measured minimum inhibitory concentration (MIC) B. cereus ATCC 11778 of individual entries
Response body: numeric value in µg/mL, unit text excluded.

Answered examples (2):
> print(dat)
                                   compound       subject.of.test  value.measured
1  CC[C@H](C)[C@H](NC(=O)[C@H](C)NC(=O)[C@H](CCCCN)NC(=O)[C@@H]1CCCN1)C(=O)O [PKAI] (H-PKAI-OH)  B. cereus ATCC 11778             500
2  CC[C@H](C)[C@@H]1NC(=O)[C@H](C)NC(=O)[C@H](CC(C)C)NC(=O)[C@@H]2CCCN2C1=O [c-PLAI, cyclo(pro-leu-ala-ile)] (cyclo(PLAI))  B. cereus ATCC 11778             125

// next entry
Which minimum inhibitory concentration (MIC) B. cereus ATCC 11778 value belongs to CC[C@H](C)[C@@H]1NC(=O)[C@H](C)NC(=O)[C@H](CCCCN)NC(=O)[C@@H]2CCCN2C1=O [c-PKAI, cyclo-(pro-lys-ala-ile)] (cyclo(PKAI)) ? 125

====

# Tested on: K. pneumonia ATCC 2357
# Test Name: microbe, parasite or virus in culture
# Study Conditions: ATCC 2357, 18 h
Where a SMILES comes first, the peptide text is derived from it.
Property Name: minimum inhibitory concentration (MIC) K. pneumonia ATCC 2357 (µg/mL)
# number only, unit µg/mL dropped from output

Recorded minimum inhibitory concentration (MIC) K. pneumonia ATCC 2357, per entry:
> print(dat)
                                   molecule  value.measured
1  CC[C@H](C)[C@H](NC(=O)[C@H](C)NC(=O)[C@H](CC(C)C)NC(=O)[C@@H]1CCCN1)C(=O)O [PLAI] (H-PLAI-OH)             250
2  CC[C@H](C)[C@H](NC(=O)[C@H](Cc1ccccc1)NC(=O)[C@H](CCCCN)NC(=O)[C@@H]1CCCN1)C(=O)O [PKFI] (H-PKFI-OH)             500

Value lookup for minimum inhibitory concentration (MIC) K. pneumonia ATCC 2357; key = CC[C@H](C)[C@@H]1NC(=O)[C@H](C)NC(=O)[C@H](CC(C)C)NC(=O)[C@@H]2CCCN2C1=O [c-PLAI, cyclo(pro-leu-ala-ile)] (cyclo(PLAI)) 500

====

Entries and their minimum inhibitory concentration (MIC) K. pneumonia ATCC 2357 values follow.
# Tested on: K. pneumonia ATCC 2357
# Test Name: microbe, parasite or virus in culture
# Study Conditions: ATCC 2357, 18 h
Where a SMILES comes first, the peptide text is derived from it.
Entry rule: numbers only, all in µg/mL.

Worked cases, answers included:
Molecule	Measurement Unit	Value Measured
CC[C@H](C)[C@@H]1NC(=O)[C@H](C(C)C)NC(=O)[C@H](CC(C)C)NC(=O)[C@@H]2CCCN2C1=O [c-PLVI, cyclo-(pro-leu-val-ile)] (cyclo(PLVI))	µg/mL	250
CC[C@H](C)[C@H](NC(=O)[C@H](C)NC(=O)[C@H](CCCCN)NC(=O)[C@@H]1CCCN1)C(=O)O [PKAI] (H-PKAI-OH)	µg/mL	500
CC[C@H](C)[C@@H]1NC(=O)[C@H](C)NC(=O)[C@H](CCCCN)NC(=O)[C@@H]2CCCN2C1=O [c-PKAI, cyclo-(pro-lys-ala-ile)] (cyclo(PKAI))	µg/mL	250
CC[C@H](C)[C@@H]1NC(=O)[C@H](Cc2ccccc2)NC(=O)[C@H](CCCCN)NC(=O)[C@@H]2CCCN2C1=O [c-PKFI, cyclo-(pro-lys-phe-ile)] (cyclo(PKFI))	µg/mL	250
CC[C@H](C)[C@@H]1NC(=O)[C@H](Cc2ccccc2)NC(=O)[C@H](CC(C)C)NC(=O)[C@@H]2CCCN2C1=O [c-PLFI, cyclo-(pro-leu-phe-ile)] (cyclo(PLFI))	µg/mL	250

Lab request: please report minimum inhibitory concentration (MIC) K. pneumonia ATCC 2357 under test system K. pneumonia ATCC 2357 for CC[C@H](C)[C@H](NC(=O)[C@@H]1CCCN1C(=O)[C@H](CC(C)C)NC(=O)[C@@H]1CCCN1)C(=O)O [PLPI] (H-PLPI-OH) 500
